tested on: mock-infected MT4 cells; assay: General toxicity assay on mock-infected MT4 cells with CMV-EGFP reporter (CC50); format: cell-based; settings: mock-infected MT4 cells with CMV-EGFP reporter; read-out: TOX-MT4CMV (CC50)
value_kind: CC50

molecule: COC(=O)N[C@H](C(=O)N[C@@H](Cc1ccc(-c2ccnc(C(F)(F)F)c2)cc1)[C@@H](O)C[C@@H](Cc1ccccc1F)C(=O)N[C@H]1c2cc(Cl)ccc2OC[C@H]1O)C(C)(C)C
CC50: > 32 µM

molecule: COC(=O)N[C@H](C(=O)N[C@@H](Cc1ccc(-c2ccc(OC)nc2)cc1)[C@@H](O)C[C@@H](Cc1ccccc1Cl)C(=O)N[C@H]1[C@H](C)CCC[C@H]1O)C(C)(C)C
CC50: 17 µM

Alright, here's another molecule for you.
# input Give me measured CC50, please, for this molecule: COC(=O)NC(C(=O)NC(Cc1ccc(-c2ccc(N(C)C)nc2)cc1)C(O)CC(Cc1ccccc1F)C(=O)NC1c2cc(Cl)ccc2OCC1O)C(C)(C)C (stereo not drawn)
# output > 32 µM

---

test system: HIV-1 Strain B (M046I, I050V); test: microbe, parasite or virus in culture; format: cell-based; conditions: clinical isolate Strain B; read-out: B EC50
value_kind: EC50
Write the quantity with the unit trailing the number.

Examples with their reported EC50 follow.
compound: COC(=O)N[C@H](C(=O)N[C@@H](Cc1ccc(-c2ccc(OC)nc2)cc1)[C@@H](O)C[C@@H](Cc1ccccc1F)C(=O)N[C@H]1c2cc(F)cc(Cl)c2OC[C@H]1O)C(C)(C)C
test_target: HIV-1 Strain B (M046I, I050V)
EC50: 1.2 nM
//
compound: COC(=O)N[C@H](C(=O)N[C@@H](Cc1ccc(-c2ccc(OC)nc2)cc1)[C@@H](O)C[C@@H](Cc1cccc(F)c1)C(=O)N[C@H]1c2ccc(F)cc2OC[C@H]1O)C(C)(C)C
test_target: HIV-1 Strain B (M046I, I050V)
EC50: 1.3 nM
//
compound: COC(=O)N[C@H](C(=O)N[C@@H](Cc1ccc(-c2ccc(OC)nc2)cc1)[C@@H](O)C[C@@H](Cc1ccccc1F)C(=O)N[C@H]1c2cccc(F)c2OC[C@H]1O)C(C)(C)C
test_target: HIV-1 Strain B (M046I, I050V)
EC50: 1.4 nM
//
compound: COC(=O)N[C@H](C(=O)N[C@@H](Cc1ccc(-c2cncc(OC)n2)cc1)[C@@H](O)C[C@@H](Cc1ccccc1F)C(=O)N[C@H]1c2cc(Cl)ccc2OC[C@H]1O)C(C)(C)C
test_target: HIV-1 Strain B (M046I, I050V)
EC50: 1.9 nM
//
compound: COC(=O)NC(C(=O)NC(Cc1ccc(-c2ccc(N(C)C)nc2)cc1)C(O)CC(Cc1cccc(Cl)c1)C(=O)NC1c2ccccc2OCC1O)C(C)(C)C (stereo not shown)
test_target: HIV-1 Strain B (M046I, I050V)
EC50: 2.2 nM

Alright, here's another compound for you.
# input Give me measured EC50, please, for this compound: COC(=O)NC(C(=O)NC(Cc1ccc(-c2cnc(OC)cn2)cc1)C(O)CC(Cc1ccccc1F)C(=O)NC1c2cc(Cl)ccc2OCC1O)C(C)(C)C (stereo not shown)
# output 2.4 nM

---

experiment: General toxicity assay on mock-infected MT4 cells with CMV-EGFP reporter (CC50); assay type: cell-based; settings: human; mock-infected MT4 cells with CMV-EGFP reporter; read-out: TOX-MT4CMV (CC50)
value_kind: CC50 (µM)
Value expressed in µM; do not type the unit.

substance_smiles: COC(=O)N[C@H](C(=O)N[C@@H](Cc1ccc(-c2cnc(C(C)C)s2)cc1)[C@@H](O)C[C@@H](Cc1ccccc1F)C(=O)N[C@H]1c2ccccc2OC[C@H]1O)C(C)(C)C
CC50 / µM: 10

Alright, here's another compound for you.
# input Give me measured CC50, please, for this compound: `COC(=O)N[C@H](C(=O)N[C@@H](Cc1ccc(-c2cnc(C(C)C)s2)cc1)[C@@H](O)C[C@@H](Cc1ccccc1F)C(=O)N[C@H]1c2cc(Cl)ccc2OC[C@H]1O)C(C)(C)C`
# output 2.2

---

Measured pEC50 accompanies every entry in the list below.
tested on: HIV-1 Strain A (M046I, I084V); assay: microbe, parasite or virus in culture; type: cell-based; details: Human immunodeficiency virus 1, read-out: A EC50
Scale note: pEC50 = -log10(concentration in M).

Examples with their reported pEC50 follow.
molecule: COC(=O)N[C@H](C(=O)N[C@@H](Cc1ccc(-c2cnc(C(C)C)s2)cc1)[C@@H](O)C[C@@H](Cc1ccccc1F)C(=O)N[C@H]1c2cc(Cl)ccc2OC[C@H]1O)C(C)(C)C [Compound 32]
test_target: HIV-1 Strain A (M046I, I084V)
value_kind: pEC50
endpoint_result: 8.30

molecule: COC(=O)N[C@H](C(=O)N[C@@H](Cc1ccc(-c2ccc(N(C)C)nc2)cc1)[C@@H](O)C[C@@H](Cc1ccccc1F)C(=O)N[C@H]1c2cc(F)cc(Cl)c2OC[C@H]1O)C(C)(C)C [Compound 52]
test_target: HIV-1 Strain A (M046I, I084V)
value_kind: pEC50
endpoint_result: 8.92

# input Give me measured pEC50, please, for this molecule: COC(=O)N[C@H](C(=O)N[C@@H](Cc1ccc(-c2cnc(C(C)C)s2)cc1)[C@@H](O)C[C@@H](Cc1ccccc1F)C(=O)N[C@H]1c2ccccc2OC[C@H]1O)C(C)(C)C [Compound 38]
# output 8.36

---

test system: mock-infected MT4 cells; assay: General toxicity assay on mock-infected MT4 cells with CMV-EGFP reporter (CC50); format: cell-based; settings: read-out: TOX-MT4CMV (CC50)
value_kind: CC50

# input Give me measured CC50, please, for this compound: `CN(C)c1ccc(-c2ccc(C[C@H](NC(=O)[C@@H](NC(=O)C3(C#N)CC3)C(C)(C)C)[C@@H](O)C[C@@H](Cc3ccccc3F)C(=O)N[C@H]3c4cc(F)ccc4OC[C@H]3O)cc2)cn1`
# output > 32 µM

---

system: HIV-1 Strain B (M046I, I050V); assay: microbe, parasite or virus in culture; assay type: cell-based; conditions: clinical isolate Strain B; read-out: B EC50
value_kind: EC50 (nM)
Value expressed in nM; do not type the unit.

Examples with their reported EC50 follow.
compound: COC(=O)N[C@H](C(=O)N[C@@H](Cc1ccc(-c2cnc(OC)nc2)cc1)[C@@H](O)C[C@@H](Cc1ccccc1F)C(=O)N[C@H]1c2cc(Cl)ccc2OC[C@H]1O)C(C)(C)C
test_target: HIV-1 Strain B (M046I, I050V)
value_kind: EC50
endpoint_result: 2.2

compound: COc1cccc(C[C@H](C[C@H](O)[C@H](Cc2ccc(-c3ccc(OC)nc3)cc2)NC(=O)O[C@H]2CO[C@H]3OCC[C@H]32)C(=O)N[C@H]2c3cc(Cl)ccc3OC[C@H]2O)c1
test_target: HIV-1 Strain B (M046I, I050V)
value_kind: EC50
endpoint_result: 1.6

compound: COCCNC(=O)[C@@H](NC(=O)[C@H](Cc1cccc(F)c1)C[C@H](O)[C@H](Cc1ccc(-c2ccc(OC)nc2)cc1)NC(=O)[C@@H](NC(=O)OC)C(C)(C)C)C(C)(C)C
test_target: HIV-1 Strain B (M046I, I050V)
value_kind: EC50
endpoint_result: 1.8

compound: COc1ccc(-c2ccc(CC(NC(=O)C(NC(=O)CN3CCCC3)C(C)(C)C)C(O)CC(Cc3ccccc3F)C(=O)NC3C(C)CCCC3O)cc2)cn1 (stereo not shown)
test_target: HIV-1 Strain B (M046I, I050V)
value_kind: EC50
endpoint_result: 2.8

# input Give me measured EC50, please, for this compound: `COC(=O)N[C@H](C(=O)N[C@@H](Cc1ccc(-c2ccc(N(C)C)nc2)cc1)[C@@H](O)C[C@@H](Cc1ccccc1F)C(=O)N[C@H]1c2ccc(Cl)cc2OC[C@H]1O)C(C)(C)C`
# output 1.4

# input Give me measured EC50, please, for this compound: `CCOc1ccc(-c2ccc(C[C@H](NC(=O)[C@@H](NC(=O)OC)C(C)(C)C)[C@@H](O)C[C@@H](Cc3ccccc3F)C(=O)N[C@H]3c4cc(Cl)ccc4OC[C@H]3O)cc2)cn1`
# output 2.2

# input Give me measured EC50, please, for this compound: `COC(=O)N[C@H](C(=O)N[C@@H](Cc1ccc(-c2ccc(N(C)C)nc2)cc1)[C@@H](O)C[C@@H](Cc1cccc(F)c1)C(=O)N[C@H]1c2ccccc2OC[C@H]1O)C(C)(C)C`
# output 1.4

# input Give me measured EC50, please, for this compound: `COC(=O)N[C@H](C(=O)N[C@@H](Cc1ccc(-c2ccc(OC)nc2)cc1)[C@@H](O)C[C@@H](Cc1cccc(OC(F)(F)F)c1)C(=O)N[C@H]1c2cc(Cl)ccc2OC[C@H]1O)C(C)(C)C`
# output 4.1

# input Give me measured EC50, please, for this compound: COC(=O)NC(C(=O)NC(Cc1ccc(-c2ccc(N(C)C)nc2)cc1)C(O)CC(Cc1cccc(Cl)c1)C(=O)NC1c2cc(Cl)ccc2OCC1O)C(C)(C)C (stereo not shown)
# output 4.4

# input Give me measured EC50, please, for this compound: `COC(=O)N[C@H](C(=O)N[C@@H](Cc1ccc(-c2cnc(C)s2)cc1)[C@@H](O)C[C@@H](Cc1ccccc1F)C(=O)N[C@H]1[C@H](C)CC[C@H]1O)C(C)(C)C`
# output 2.5
